# key: entry, value: inhibition
- Study System: Prostaglandin G/H synthase 1 (Ovis aries)
- Protocol Details: Inhibition of Prostaglandin G/H synthase activity in sheep seminal vesicle was determined at 100 uM

{"Structure Smiles": "COc1cc(C(=O)/C=C/c2ccc(O)c(O)c2)cc(OC)c1OC", "inhibition [%]": 13}
{"Structure Smiles": "COc1cccc(OC)c1C(=O)/C=C/c1ccc(O)c(O)c1", "inhibition [%]": 15}
{"Structure Smiles": "CC(C)Oc1ccc(C(=O)/C=C/c2ccc(O)c(O)c2)cc1", "inhibition [%]": 11}
{"Structure Smiles": "COc1cc(C(=O)/C=C/c2ccc(O)c(O)c2)ccc1O", "inhibition [%]": 14}
{"Structure Smiles": "CCCCOc1ccc(O)c(C(=O)/C=C/c2ccc(O)c(O)c2)c1", "inhibition [%]": 4.2}

The values you see were collected from ChEMBL document CHEMBL1127082.
